- system_under_test: CRTH2 (Homo sapiens)
- Sequence (Q9Y5Y4 whole entry): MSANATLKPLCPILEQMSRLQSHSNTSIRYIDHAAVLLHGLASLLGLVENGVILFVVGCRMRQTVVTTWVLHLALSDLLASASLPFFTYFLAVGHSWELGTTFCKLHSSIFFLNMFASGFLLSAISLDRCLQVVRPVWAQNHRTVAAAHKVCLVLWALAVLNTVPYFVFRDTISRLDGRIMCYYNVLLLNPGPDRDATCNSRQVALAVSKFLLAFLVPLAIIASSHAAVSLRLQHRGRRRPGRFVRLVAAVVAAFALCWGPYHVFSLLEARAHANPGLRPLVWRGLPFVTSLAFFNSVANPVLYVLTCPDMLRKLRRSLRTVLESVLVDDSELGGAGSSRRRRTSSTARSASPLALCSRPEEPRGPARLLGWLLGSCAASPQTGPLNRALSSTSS
- test_summary: FRET based competitive immunoassay (cAMP) in CRTH2 expressing CHO cells
- condition_set: CRTH2 expressing CHO cells incubated with forskolin and PGD2; Eu3+ cryptate-labeled anti-cAMP and d2-labeled cAMP
Kindly supply the reported IC50 values for the records listed here.

[[record]]
chemical_structure = "Cc1c(-c2nn(CC(F)(F)F)c(=O)c3ccccc23)c2cc(F)ccc2n1CC(=O)O"
quantity_kind = "IC50"
value_reported = "8 nM"

[[record]]
chemical_structure = "Cc1c(-c2nn(Cc3ccccc3C(F)(F)F)c(=O)c3ccccc23)c2cc(F)ccc2n1CC(=O)O"
quantity_kind = "IC50"
value_reported = "9 nM"

[[record]]
chemical_structure = "Cc1c(-c2nn(CCc3ccccc3)c(=O)c3ccccc23)c2cc(F)ccc2n1CC(=O)O"
quantity_kind = "IC50"
value_reported = "2 nM"


# map each compound to its IC50
1. Cc1c(-c2cn(Cc3ccccc3)c(=O)c3ccccc23)c2cc(F)ccc2n1CC(=O)NS(C)(=O)=O
2. Cc1c(-c2cn(CCC(C(F)(F)F)C(F)(F)F)c(=O)c3ccccc23)c2cc(F)ccc2n1CC(=O)O
3. Cc1c(-c2nn(Cc3ccccc3)c(=O)c3ccccc23)c2ccccc2n1Cc1nn[nH]n1

Ans:
1. 518 nM
2. 296 nM
3. > 2000 nM

Attribution: patent US20110105509A1
